This collection of values is drawn from paper PMC5940854.

ASSAY_REMARKS: Oral pharmacokinetics
Type: in vivo, BALB/c mice
COND: BALB/c, mouse, plasma; mice, single oral dose 100 mg/kg
MEASUREMENT_LABEL: Cmax (ng/mL)
Numbers only, in ng/mL.

Query: What Cmax value was documented for this compound, O=C(Nc1nc(-c2ccc(F)cc2)cs1)c1ccc([N+](=O)[O-])s1 ?
Reply: 3800

====

Test system: E. coli clinical isolates
ASSAY_REMARKS: MIC on panel of E. coli clinical isolates
Format: cell-based
COND: strain SEC076
MEASUREMENT_LABEL: MIC (mg/L)
Give bare numbers, in mg/L.

In the examples that follow, each entry is paired with its recorded MIC.
- O=C(Nc1nc(-c2ccc(F)cc2)cs1)c1ccc([N+](=O)[O-])s1: 1
- C[C@@H](O)[C@H]1C(=O)N2C(C(=O)O)=C(S[C@@H]3CN[C@H](C(=O)N(C)C)C3)[C@H](C)[C@H]12 [meropenem, reference compound]: 0.06
- CNC(C)C1CCC(N)C(OC2C(N)CC(N)C(OC3OCC(C)(O)C(NC)C3O)C2O)O1 (stereo not drawn) [gentamicin, reference compound]: 4
- COc1cc(-c2csc(NC(=O)c3ccc([N+](=O)[O-])s3)n2)ccc1Cl: 4
- O=C(Nc1nc(-c2ccc(F)cc2F)cs1)c1ccc([N+](=O)[O-])s1: 2

Consider now this further compound.
Query: Sample O=C1CN(/N=C/c2ccc([N+](=O)[O-])o2)C(=O)N1 [nitrofurantoin, reference compound] — what was its MIC?
Reply: 20
